Target: T1, human TNFα (human, UniProt P01375 77-233)
T1 construct: also called TAR1; TNF alpha
T1 sequence (P01375 77-233 limits assumed): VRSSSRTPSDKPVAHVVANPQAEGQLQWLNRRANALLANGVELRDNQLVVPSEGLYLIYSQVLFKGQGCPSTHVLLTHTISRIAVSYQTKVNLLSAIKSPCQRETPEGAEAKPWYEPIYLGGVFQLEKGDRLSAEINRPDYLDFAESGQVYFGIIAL
Assay: TNF receptor assay (ELISA): inhibition of TNF binding to plate-bound TNF receptor 1-Fc
pIC50: −log10 of the molar value.
RECORDED METRIC: pIC50

Endpoint output: pIC50 of TAR1-5-19 d6 (other) DIQMTQSPSSLSASVGDRVTITCRASQSIDSYLHWYQQKPGKAPKLLIYSASELQSGVPSRFSGSGSGTDFTLTISSLQPEDFATYYCQQVVWRPFTFGQGTKVEIKRGGGGSGGGGSGGGGSGGGGSGGGGSGGGGSGGGGSDIQMTQSPSSLSASVGDRVTITCRASQSIYDALEWYQQKPGKAPKLLIYTASRLQSGVPSRFSGSGSGTDFTLTISSLQPEDFATYYCQQVMQRPVTFGQGTKVEIK . Value?
~8.00
